Reported IC50 values for a set of molecules
target or system: GlyT1 (Homo sapiens, UniProt P48067)
Construct: expressed in transfected cells
Sequence (P48067 1-706): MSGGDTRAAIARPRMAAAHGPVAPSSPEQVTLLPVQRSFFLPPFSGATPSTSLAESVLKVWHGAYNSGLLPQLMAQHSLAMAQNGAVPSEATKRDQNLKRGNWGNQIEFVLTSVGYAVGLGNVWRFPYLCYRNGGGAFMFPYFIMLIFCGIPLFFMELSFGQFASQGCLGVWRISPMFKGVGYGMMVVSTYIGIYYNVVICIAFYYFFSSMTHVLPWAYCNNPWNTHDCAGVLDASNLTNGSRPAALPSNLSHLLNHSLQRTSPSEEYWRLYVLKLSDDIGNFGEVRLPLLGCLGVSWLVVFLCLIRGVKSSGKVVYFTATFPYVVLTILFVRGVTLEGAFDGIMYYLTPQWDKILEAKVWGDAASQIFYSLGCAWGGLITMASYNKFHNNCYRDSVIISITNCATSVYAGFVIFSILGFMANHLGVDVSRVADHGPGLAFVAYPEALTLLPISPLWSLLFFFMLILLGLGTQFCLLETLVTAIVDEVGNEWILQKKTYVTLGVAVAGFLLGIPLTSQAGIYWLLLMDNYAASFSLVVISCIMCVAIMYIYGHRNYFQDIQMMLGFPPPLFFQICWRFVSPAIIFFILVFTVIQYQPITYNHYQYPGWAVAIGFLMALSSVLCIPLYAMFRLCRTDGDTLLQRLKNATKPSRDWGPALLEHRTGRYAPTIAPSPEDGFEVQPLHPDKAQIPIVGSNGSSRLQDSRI
procedure text: Glycine Transporter 1 (GlyT1) uptake assay, scintillation proximity assay of [14C]-glycine uptake
Assay type: cell-based
applied conditions: SPA, four parameter logistic fit, read-out: GlyT1 (pIC50) (converted)

[[record]]
molecule = "COc1c(C#N)ccc(OCC2CC2)c1C(=O)N1Cc2cn(-c3cncc(F)c3)nc2C1"
result = "< 100 nM"

[[record]]
molecule = "CS(=O)(=O)c1ccc(OCC(F)(F)F)c(C(=O)N2Cc3cn(-c4ccccc4F)nc3C2)c1"
result = "< 100 nM"

[[record]]
molecule = "COc1c(C#N)ccc(C2(F)CCOCC2)c1C(=O)N1CCc2nn(-c3ccc(F)cc3)cc2C1"
result = "100 to 1000 nM"

[[record]]
molecule = "CC(C)(Oc1ccc(C#N)cc1C(=O)N1Cc2cn(-c3ccc(F)cc3)nc2C1)C(F)(F)F"
result = "100 to 1000 nM"

[[record]]
molecule = "CC(Oc1ccc(C#N)cc1C(=O)N1Cc2cn(-c3ccc(F)cn3)nc2C1)C(F)(F)F (stereo not drawn)"
result = "100 to 1000 nM"


Query (molecule): CC(Oc1ccc(C#N)c(Cl)c1C(=O)N1CCc2c(cnn2C2CCCCC2)C1)C(F)(F)F (stereo not drawn) ; field requested: IC50
100 to 1000 nM

Query (molecule): CC(C)Cn1cc2c(n1)CN(C(=O)c1cc(S(C)(=O)=O)ccc1-c1cccc(F)c1)C2 ; field requested: IC50
< 100 nM

Query (molecule): CC(C)Oc1ccc(S(C)(=O)=O)cc1C(=O)N1Cc2cn(-c3ccc(F)cc3)nc2C1 ; field requested: IC50
< 100 nM

Query (molecule): COc1c(C#N)ccc(OC(C)C)c1C(=O)N1Cc2cn(-c3ccc(F)cc3)nc2C1 ; field requested: IC50
< 100 nM
